Molecular target: T1, control peptide A2E-14/HLA-A*02:01 complex on T2 cells (member of the P19 mixture) (human)
T1 construct: Loaded on T2 cells as part of the mixture of 19 control peptides
Test: flow cytometry, phage on T2 cells
observable: binding result

INSERT INTO results (binder, measured_value) VALUES
  ('PSA146/HLA-A*02:01-specific scFv phage clone #17 (scFv, V domains shown) VH: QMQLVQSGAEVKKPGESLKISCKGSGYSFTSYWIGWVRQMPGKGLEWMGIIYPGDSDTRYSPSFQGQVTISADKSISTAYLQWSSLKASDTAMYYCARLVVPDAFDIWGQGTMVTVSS VL: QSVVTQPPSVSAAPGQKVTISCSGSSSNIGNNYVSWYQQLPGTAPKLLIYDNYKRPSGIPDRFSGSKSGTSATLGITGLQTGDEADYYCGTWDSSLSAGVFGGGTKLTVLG', 'no binding'),
  ('PSA146/HLA-A*02:01-specific scFv phage clone #13 (scFv, V domains shown) VH: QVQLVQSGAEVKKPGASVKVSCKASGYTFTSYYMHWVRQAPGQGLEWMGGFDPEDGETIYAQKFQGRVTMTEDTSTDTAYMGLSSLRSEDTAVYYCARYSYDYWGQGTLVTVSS VL: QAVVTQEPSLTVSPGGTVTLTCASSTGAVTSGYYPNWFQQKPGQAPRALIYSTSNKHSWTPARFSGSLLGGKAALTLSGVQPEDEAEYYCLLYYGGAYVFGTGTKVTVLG', 'no binding'),
  ('PSA146/HLA-A*02:01-specific scFv phage clone #9 (scFv, V domains shown) VH: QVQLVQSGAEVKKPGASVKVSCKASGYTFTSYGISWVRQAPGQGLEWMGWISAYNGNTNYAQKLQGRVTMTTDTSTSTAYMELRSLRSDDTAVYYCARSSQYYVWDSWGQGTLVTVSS VL: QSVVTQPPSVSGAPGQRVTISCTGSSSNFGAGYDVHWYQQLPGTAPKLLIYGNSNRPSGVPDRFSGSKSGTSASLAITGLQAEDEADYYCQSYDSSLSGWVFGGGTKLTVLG', 'no binding');
